// values below are reported SFV replication % left
# Test system: SFV-Rluc
# measurement.parameters: primary screening of chemical libraries; compounds tested at 50 µM
Answer with a number only, understood to be in %.

Here's what some known entries look like.
[
  {
    "compound": "O=c1oc2c3c4c(cc2c2c1CCC2)CCCN4CCC3",
    "system.name": "SFV-Rluc",
    "value.units": "%",
    "observed.result": 82.1
  },
  {
    "compound": "O=c1c(O)c(-c2ccc(O)cc2)oc2cc(O)cc(O)c12",
    "system.name": "SFV-Rluc",
    "value.units": "%",
    "observed.result": 2.9
  },
  {
    "compound": "NS(=O)(=O)c1cc2c(cc1Cl)N=CNS2(=O)=O",
    "system.name": "SFV-Rluc",
    "value.units": "%",
    "observed.result": 90.3
  },
  {
    "compound": "CCNCC(O)c1cccc(O)c1 (centres unmarked)",
    "system.name": "SFV-Rluc",
    "value.units": "%",
    "observed.result": 116.8
  }
]

Next, consider the following compound.
Task: Tell me the measured SFV replication % left of C=CCC(=NOS(=O)(=O)[O-])SC1OC(CO)C(O)C(O)C1O.O.[K+] (centres unmarked) , please.
Result: 47.6

###

# Test system: SFV-Rluc
# measurement.parameters: primary screening of chemical libraries; compounds tested at 50 µM
// values below are reported SFV replication % left
Answer with a number only, understood to be in %.

Here's what some known entries look like.
[
  {
    "compound": "CN1CCC(CN2c3ccccc3Sc3ccccc32)C1 (stereo not shown)",
    "value.units": "%",
    "SFV replication % left": 22.5
  },
  {
    "compound": "Cc1cc(N)c2ccccc2[n+]1CCCCCCCCCC[n+]1c(C)cc(N)c2ccccc21.[Cl-].[Cl-]",
    "value.units": "%",
    "SFV replication % left": 62.5
  },
  {
    "compound": "CN(C)CCC=C1c2ccccc2COc2ccccc21.Cl",
    "value.units": "%",
    "SFV replication % left": 21.6
  },
  {
    "compound": "Nc1nc2ncc(CNc3ccc(C(=O)N[C@@H](CCC(=O)O)C(=O)O)cc3)nc2c(=O)[nH]1",
    "value.units": "%",
    "SFV replication % left": 100.0
  }
]

Task: Tell me the measured SFV replication % left of `O=C(O)c1ccccc1O` , please.
Result: 69.1

Task: Now consider `CN1C(=O)CN=C(c2ccc(Cl)cc2)c2cc(Cl)ccc21` and answer again.
Result: 64.0

Task: Now consider `O=c1cc(-c2ccc(O)c(O)c2)oc2cc(O)cc(O)c12` and answer again.
Result: 71.3

###

# Test system: SFV-Rluc
Structures can show the parent of a compound that is named as a salt.
reported.metric: SFV replication % left (surviving fraction, remaining percentage of SFV replication)
Value and unit, in that order.

Here's what some known entries look like.
[
  {
    "compound": "Cc1cc(=O)n(-c2ccccc2)n1C [Antipyrine]",
    "system.name": "SFV-Rluc",
    "observed.result": "60.1%"
  },
  {
    "compound": "NCCCS(=O)(=O)O [Homotaurine]",
    "system.name": "SFV-Rluc",
    "observed.result": "118.7%"
  },
  {
    "compound": "CC(C)NCC(O)c1ccc(O)c(O)c1.Cl (stereo not shown)",
    "system.name": "SFV-Rluc",
    "observed.result": "112.5%"
  },
  {
    "compound": "COc1cc(-c2oc3cc(O)cc(O)c3c(=O)c2O)ccc1O [Isorhamnetin]",
    "system.name": "SFV-Rluc",
    "observed.result": "28.9%"
  },
  {
    "compound": "CCC(NC(C)C)C(O)c1ccc(O)c(O)c1 (stereo not shown) [Isoetharine]",
    "system.name": "SFV-Rluc",
    "observed.result": "90.7%"
  }
]

Task: Tell me the measured SFV replication % left (surviving fraction, remaining percentage of SFV replication) of Oc1ccc(O)cc1 [Hydroquinone] , please.
Result: 16.9%

Task: Now consider Oc1cccc(O)c1O [Pyrogallol] and answer again.
Result: 22.7%

Task: Now consider Cc1ncc(C[n+]2csc(CCO)c2C)c(N)n1.O=[N+]([O-])[O-] [Thiamine mononitrate] and answer again.
Result: 95.2%

Task: Now consider CN(C)CCC=C1c2ccccc2COc2ccccc21 [Doxepin hydrochloride] and answer again.
Result: 21.6%

Task: Now consider CC(=O)CC(c1ccccc1)c1c(O)c2ccccc2oc1=O (stereo not shown) [3-(a-Acetonylbenzyl)-4-hydroxycoumarin] and answer again.
Result: 79.5%

###

// values below are reported SFV replication % left (surviving fraction, remaining percentage of SFV replication)
# Test system: SFV-Rluc
Counter-ions that a name gives are not always drawn.
Answer with a number only, understood to be in %.

[
  {
    "compound": "CN(Cc1cc(Br)cc(Br)c1N)C1CCCCC1 [Bromhexine hydrochloride]",
    "observed.result": 64.8
  },
  {
    "compound": "[H]/N=C(/N)NS(=O)(=O)c1ccc(N)cc1",
    "observed.result": 63.5
  },
  {
    "compound": "CCSc1ccc2c(c1)N(CCCN1CCN(C)CC1)c1ccccc1S2",
    "observed.result": 26.5
  }
]

Task: Tell me the measured SFV replication % left (surviving fraction, remaining percentage of SFV replication) of CCC(N)C(O)c1ccc(O)c(O)c1 (stereo not drawn) [Ethylnorepinephrine] , please.
Result: 126.8

Task: Now consider `CC(C)(C)NC[C@H](O)COc1nsnc1N1CCOCC1.O=C(O)/C=C\C(=O)O` and answer again.
Result: 129.1

Task: Now consider CCCCCCCCCCCCOC(=O)c1cc(O)c(O)c(O)c1 [Lauryl gallate] and answer again.
Result: 12.3

Task: Now consider NC(=O)NS(=O)(=O)c1ccc(N)cc1.O [Sulfaninyl urea hydrate] and answer again.
Result: 120.2

Task: Now consider `COc1cc2oc(=O)ccc2cc1O` and answer again.
Result: 120.6

Task: Now consider `CC[C@@]1(O)C(=O)OCc2c1cc1n(c2=O)Cc2cc3ccccc3nc2-1` and answer again.
Result: 87.7

###

The reader will find SI (selectivity index) measurements below, all made with SFV-Rluc.

Here's what some known entries look like.
[
  {
    "molecule": "O=c1cc(-c2ccccc2)oc2cc(O)cc(O)c12 [Chrysin]",
    "SI (selectivity index)": ">14.6"
  },
  {
    "molecule": "CCN(CC)CCCC(C)Nc1ccnc2cc(Cl)ccc12 (stereo not shown) [Chloroquine]",
    "SI (selectivity index)": ">14.9"
  },
  {
    "molecule": "C[C@@H]1O[C@@H](Oc2c(-c3ccc(O)c(O)c3)oc3cc(O)cc(O)c3c2=O)[C@H](O)[C@H](O)[C@H]1O [Quercitrin]",
    "SI (selectivity index)": ">8.4"
  },
  {
    "molecule": "CN(C)CCCN1c2ccccc2Sc2cccnc21 [Prothipendyl]",
    "SI (selectivity index)": ">24.4"
  }
]

Task: Tell me the measured SI (selectivity index) of N/C(CC(O)COc1cccc2ccccc12)=N/O (stereo not shown) [Nadoxolol] , please.
Result: >12.2

Task: Now consider OCCN1CCN(CCCN2c3ccccc3C=Cc3ccccc32)CC1 [Opipramol] and answer again.
Result: >10.2

Task: Now consider O=c1cc(-c2ccc(O)cc2)oc2cc(O)cc(O)c12 [Apigenin] and answer again.
Result: >9.7

###

# System: BHK cells
# experimental.details: Cell viability ATP assay, BHK cells
# Type: cell-based, hamster
# measurement.parameters: Mesocricetus auratus, BHK, 48 h, read-out: Cell viability IC50
// values below are reported IC50

[
  {
    "compound": "Oc1cccc(O)c1O [Pyrogallol]",
    "observed.result": "> 200 µM"
  },
  {
    "compound": "O=c1cc(-c2ccc(O)cc2)oc2cc(O)cc(O)c12 [Apigenin]",
    "observed.result": "> 200 µM"
  },
  {
    "compound": "CN(C)CCCN1c2ccccc2Sc2cccnc21 [Prothipendyl]",
    "observed.result": "> 200 µM"
  },
  {
    "compound": "O=c1cc(-c2ccccc2)oc2cc(O)cc(O)c12 [Chrysin]",
    "observed.result": "> 200 µM"
  },
  {
    "compound": "COc1c2ccoc2cc2oc(=O)ccc12 [Bergapten]",
    "observed.result": "> 200 µM"
  }
]

Next, consider the following compound.
Task: Tell me the measured IC50 of COc1c(C)c2c(c(O)c1C/C=C(\C)CCC(=O)O)C(=O)OC2 [Mycophenolic acid, reference compound] , please.
Result: > 200 µM
